# Experimental system: EZH1 (Homo sapiens)
# Sequence (Q92800 whole entry, species assumed): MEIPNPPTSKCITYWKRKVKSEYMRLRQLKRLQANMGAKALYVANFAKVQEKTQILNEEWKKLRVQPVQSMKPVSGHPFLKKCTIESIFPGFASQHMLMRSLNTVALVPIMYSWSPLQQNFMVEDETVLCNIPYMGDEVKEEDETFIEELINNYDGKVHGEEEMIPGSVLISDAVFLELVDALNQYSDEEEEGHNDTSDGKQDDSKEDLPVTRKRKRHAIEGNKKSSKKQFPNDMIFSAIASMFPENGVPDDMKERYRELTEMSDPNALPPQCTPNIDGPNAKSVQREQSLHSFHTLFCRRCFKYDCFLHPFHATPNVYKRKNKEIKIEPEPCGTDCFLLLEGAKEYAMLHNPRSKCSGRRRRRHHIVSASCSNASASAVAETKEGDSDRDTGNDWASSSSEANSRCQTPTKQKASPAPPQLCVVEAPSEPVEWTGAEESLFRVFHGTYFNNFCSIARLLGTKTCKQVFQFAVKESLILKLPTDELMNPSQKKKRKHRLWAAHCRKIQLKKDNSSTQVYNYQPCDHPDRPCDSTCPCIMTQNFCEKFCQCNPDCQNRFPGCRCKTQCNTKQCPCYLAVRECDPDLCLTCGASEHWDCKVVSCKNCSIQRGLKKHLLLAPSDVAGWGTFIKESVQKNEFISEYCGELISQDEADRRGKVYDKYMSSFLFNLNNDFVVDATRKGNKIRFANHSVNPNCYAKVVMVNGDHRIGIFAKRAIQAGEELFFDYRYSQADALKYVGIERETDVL
# Sequence (O75530 whole entry partner, species assumed): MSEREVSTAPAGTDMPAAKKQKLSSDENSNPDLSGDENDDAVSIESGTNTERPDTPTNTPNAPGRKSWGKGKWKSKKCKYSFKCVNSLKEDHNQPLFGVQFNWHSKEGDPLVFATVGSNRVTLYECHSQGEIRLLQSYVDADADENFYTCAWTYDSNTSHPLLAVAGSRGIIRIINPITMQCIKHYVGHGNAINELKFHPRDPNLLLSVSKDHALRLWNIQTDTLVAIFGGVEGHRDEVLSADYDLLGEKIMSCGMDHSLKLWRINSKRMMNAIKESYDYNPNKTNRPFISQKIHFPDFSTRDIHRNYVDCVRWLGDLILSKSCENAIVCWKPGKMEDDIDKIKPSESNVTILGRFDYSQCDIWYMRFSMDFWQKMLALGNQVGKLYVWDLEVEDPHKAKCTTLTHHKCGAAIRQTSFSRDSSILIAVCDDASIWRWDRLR
# Sequence (Q15022 whole entry partner, species assumed): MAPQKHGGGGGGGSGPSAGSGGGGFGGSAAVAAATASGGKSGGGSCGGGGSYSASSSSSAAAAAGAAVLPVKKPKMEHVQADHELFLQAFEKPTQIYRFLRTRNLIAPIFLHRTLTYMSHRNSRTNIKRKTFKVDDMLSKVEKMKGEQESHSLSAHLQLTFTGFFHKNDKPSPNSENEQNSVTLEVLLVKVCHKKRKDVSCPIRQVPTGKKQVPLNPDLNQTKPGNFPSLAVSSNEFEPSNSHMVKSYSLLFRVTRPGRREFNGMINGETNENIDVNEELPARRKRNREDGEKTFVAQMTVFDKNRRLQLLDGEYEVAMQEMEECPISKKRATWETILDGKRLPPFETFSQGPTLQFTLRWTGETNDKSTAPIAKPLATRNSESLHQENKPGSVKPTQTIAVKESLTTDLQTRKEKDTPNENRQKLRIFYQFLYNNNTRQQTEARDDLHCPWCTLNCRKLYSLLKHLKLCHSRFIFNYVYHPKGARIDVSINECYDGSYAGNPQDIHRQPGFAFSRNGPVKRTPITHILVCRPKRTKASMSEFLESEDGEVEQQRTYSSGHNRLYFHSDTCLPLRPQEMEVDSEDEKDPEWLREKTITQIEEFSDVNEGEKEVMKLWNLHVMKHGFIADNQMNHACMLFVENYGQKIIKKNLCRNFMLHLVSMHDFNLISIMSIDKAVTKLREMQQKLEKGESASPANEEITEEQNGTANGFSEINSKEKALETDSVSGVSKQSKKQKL
# Protocol notes: AlphaLISA enzyme activity inhibition, EZH1
# Type: biochemical
# Measurement conditions: 5nM test substance
Counter-ions that a name gives are not always drawn.
Quantity name: inhibition at 0.005 µM (%)

CSc1cc(C)[nH]c(=O)c1CNC(=O)c1cc(-c2ccc(Cl)s2)c2c(c1C)OC(C)([C@H]1CC[C@H](N(C)C)CC1)O2 (relative stereo) : 78.7
CCN1CCN(c2ncc(-c3cc(C(=O)NCc4c(SC)cc(C)[nH]c4=O)c(C)c4c3OC(C)(C3CCN(CC(F)(F)F)CC3)O4)cn2)CC1 (single isomer, unassigned) [Compound 76] : 79
CSc1cc(C)[nH]c(=O)c1CNC(=O)c1cc(-c2cnc(N3CCCC3)nc2)c2c(c1C)OC(C)([C@H]1CC[C@H](N(C)C)CC1)O2 (relative stereo) : 95.1

1 = CSc1cc(C)[nH]c(=O)c1CNC(=O)c1cc(-c2cnc(N3CCSCC3)nc2)c2c(c1C)OC(C)(C1CCN(CC(F)(F)F)CC1)O2 (stereo not shown)
2 = CSc1cc(C)[nH]c(=O)c1CNC(=O)c1cc(-c2cnc(N3CCOCC3)nc2)c2c(c1C)OC(C)(C1CCN(CC(F)(F)F)CC1)O2 (single isomer, unassigned) [Compound 69]
Task: Lower inhibition at 0.005 µM: 1 or 2 ? Indicate which entry you chose by stating its label.
Output: 1
(1: 27.2%, 2: 71.9%)

P = CCCCN(C)c1ncc(-c2cc(C(=O)NCc3c(SC)cc(C)[nH]c3=O)c(C)c3c2OC(C)(C2CCN(CC(F)(F)F)CC2)O3)cn1 (stereo not shown)
Q = CSc1cc(C)[nH]c(=O)c1CNC(=O)c1cc(-c2ccc3occc3c2)c2c(c1C)OC(C)(C1CCN(CC(F)F)CC1)O2 (stereo not shown)
Task: // returns P or Q , whichever has the lower inhibition at 0.005 µM Answer = label.
Output: Q
(Q: 25.9%, P: 37.1%)

I = CSc1cc(C)[nH]c(=O)c1CNC(=O)c1cc(-c2ccc(N3C[C@@H](C)O[C@@H](C)C3)nc2)c2c(c1C)OC(C)([C@H]1CC[C@H](N)CC1)O2 (stereo partly shown) [Compound 100, hydrochloride]
II = CSc1cc(C)[nH]c(=O)c1CNC(=O)c1cc(-c2ccc3occc3c2)c2c(c1C)OC(C)(C1CCN(CC(F)(F)F)CC1)O2 (stereo not shown)
Task: Pick one: I or II . Which has the bigger inhibition at 0.005 µM number? To answer, give the label that identifies your chosen option.
Output: I
(I: 30%, II: 19.2%)
